# System: A498 renal
# measurement notes: NCI-60 one-dose screen, 48 h
# condition info: 10 µM unless noted
About 83,000 compounds went through this panel and 20% of them were active in at least one assay; those are over-represented in the sample as a whole. The source made the active and inactive calls. Rule for the calls: active = growth percent below 10; inactive = the rest.
Please reply with one of these outcomes: Yes (active), No (inactive)

Here are 6 compounds together with their reported answers.
>  <compound>
CN(CCC#N)c1ccc(/C=C(\C#N)c2cccc(C(F)(F)F)c2)cc1

>  <system name>
A498 renal

>  <assigned category>
No

$$$$
>  <compound>
Cc1c(Cc2ccccc2)c(=O)oc2c(C)c(OCC(=O)n3nc(C#N)cc3N)ccc12

>  <system name>
A498 renal

>  <assigned category>
No

$$$$
>  <compound>
COC(=O)[C@H](Cc1cn(C)cn1)NC(=O)[C@H](Cc1c[nH]c2ccccc12)NC(=O)Nc1cc(C(F)(F)F)cc(C(F)(F)F)c1

>  <system name>
A498 renal

>  <assigned category>
Yes

$$$$
>  <compound>
COc1ccc(CN2C(=O)/C(=C\C(=O)c3ccc(OCCN4CCCCC4)cc3)c3ccccc32)cc1

>  <system name>
A498 renal

>  <assigned category>
No

$$$$
>  <compound>
CCc1c(C)c2ccc(OCC(=O)N=Nc3c(O)[nH]c4ccccc34)c(C)c2oc1=O

>  <system name>
A498 renal

>  <assigned category>
No

$$$$
>  <compound>
Cc1c(CN(C)C)cc(C(C)C)cc1C(C)C

>  <system name>
A498 renal

>  <assigned category>
No

$$$$

### Prompt Given "O=C(N/N=C\c1ccc(Cl)cc1)C(=O)N/N=C\c1ccc(Cl)cc1" , state the outcome it received in this test.
### Response No

### Prompt Given "Nc1nc(-c2cccc(Br)c2)cc(-c2cc3ccccc3oc2=O)n1" , state the outcome it received in this test.
### Response No

### Prompt Given CCN(CC)C(=O)C1(C)CCCC2(C)c3cc(OC(C)=O)ccc3CCC12 (stereo not given) , state the outcome it received in this test.
### Response No

### Prompt Given COc1ccc(C2C3(C#N)C(N)=NC(=C(C#N)C#N)C23C#N)cc1OC (stereo not given) , state the outcome it received in this test.
### Response No

### Prompt Given "COc1nc(OC)nc(-c2cc(-c3cc(OC)c(OC)c(OC)c3)no2)n1" , state the outcome it received in this test.
### Response No

### Prompt Given "Cc1cc2c(-c3nc4ccccc4[nH]3)c(O)c(O)cc2c(O)c1-c1c(C)cc2c(-c3nc4ccccc4[nH]3)c(O)c(O)cc2c1O" , state the outcome it received in this test.
### Response Yes

###

# Test system: NCI-H322M lung
# measurement notes: NCI-60 one-dose screen, 48 h
# condition info: 10 µM unless noted
Compounds without any hit were thinned out: in the full panel of roughly 83,000, 20% have a hit. Active and inactive are the calls of the source. Rule for the calls: active = growth percent below 10; inactive = the rest.
Please reply with one of these outcomes: T (active), F (inactive)

>  <compound>
CCCNC(=O)Oc1ccc(/C(=C(/CC)Cc2ccccc2)c2ccc(OCCN(CC)CC)cc2)cc1

>  <assigned category>
F

$$$$
>  <compound>
COC(=O)c1ccc2[nH]c(O)c(C(=Nc3ccc(N(C)C(=O)CN4CCN(C)CC4)cc3)c3cccc(OC)c3)c2c1

>  <assigned category>
F

$$$$
>  <compound>
O=C(OCC1CC2(Cl)C(Cl)=C(Cl)C1(Cl)C2(Cl)Cl)C1C(C(=O)OCC2CC3(Cl)C(Cl)=C(Cl)C2(Cl)C3(Cl)Cl)C2(Cl)C(Cl)=C(Cl)C1(Cl)C2(Cl)Cl (centres undefined)

>  <assigned category>
F

$$$$

### Prompt Given "Cc1ccc2c(c1)C(=O)CCS2" , state the outcome it received in this test.
### Response F

### Prompt Given "Cc1ccc(C(=O)Nc2ccc(CN3CCN(C)CC3)c(C(F)(F)F)c2)cc1C#Cc1cncc2ncccc12" , state the outcome it received in this test.
### Response T

### Prompt Given "O=C(Nc1ccc(Cl)c(Cl)c1)O/N=C\c1c(Cl)ccc([N+](=O)[O-])c1Cl" , state the outcome it received in this test.
### Response F

### Prompt Given "CCCCCc1ccnc(CC(=O)c2ccc(OC)cc2)c1" , state the outcome it received in this test.
### Response F

### Prompt Given "NCCCOc1cc2ccccc2cc1C(=O)Nc1ccc(Cl)cc1OC(=O)c1cc2ccccc2cc1OCCCN" , state the outcome it received in this test.
### Response T

### Prompt Given COC1(OC)N=C(N)C2(C#N)C3(C(=O)Nc4ccccc43)C12C#N (centres undefined) , state the outcome it received in this test.
### Response F
